// provenance: paper PMC10823475

Record form. Attribute: Papp at 16 h, 10 μM. Fill in for each entry.
# Experiment description: PAMPA parallel artificial membrane permeability assay
# Test context: PAMPA, pH 6.5, PAMPA Permeability Class pH 6.5, donor pH 6.5, 10 µM

What does the data say about its Papp at 16 h, 10 μM? Entry: CCC(C)CNCC(=O)N1CCc2ccccc2C1c1ccccc1 (stereo not shown)
> 20 ×10⁻⁶ cm/s

What does the data say about its Papp at 16 h, 10 μM? Entry: C=CCNCC(=O)N1CCc2sccc2C1COc1ccc(Cl)cc1 (stereo not shown)
5 to 20 ×10⁻⁶ cm/s

What does the data say about its Papp at 16 h, 10 μM? Entry: CCC(C)CNCC(=O)N1CCc2sccc2C1c1cccc(C)c1 (stereo not shown)
5 to 20 ×10⁻⁶ cm/s

What does the data say about its Papp at 16 h, 10 μM? Entry: CC(C)(C)NCC(O)COc1cccc2c1CC(O)C(O)C2 (stereo not shown) [Nadolol, reference compound]
< 5 ×10⁻⁶ cm/s

What does the data say about its Papp at 16 h, 10 μM? Entry: CCC(C)CNCC(=O)N1CCc2sccc2C1c1cccc(C)n1 (stereo not shown)
5 to 20 ×10⁻⁶ cm/s

What does the data say about its Papp at 16 h, 10 μM? Entry: CC(=O)N1CCc2ccccc2C1c1ccccc1 (stereo not shown)
> 20 ×10⁻⁶ cm/s

What does the data say about its Papp at 16 h, 10 μM? Entry: CC(=O)N1CCc2sccc2C1c1ccccc1 (stereo not shown)
> 20 ×10⁻⁶ cm/s

----------
# Target or test system: purified HHAT (Homo sapiens, UniProt Q5VTY9)
# Construct: made in house
# Sequence (Q5VTY9 whole entry): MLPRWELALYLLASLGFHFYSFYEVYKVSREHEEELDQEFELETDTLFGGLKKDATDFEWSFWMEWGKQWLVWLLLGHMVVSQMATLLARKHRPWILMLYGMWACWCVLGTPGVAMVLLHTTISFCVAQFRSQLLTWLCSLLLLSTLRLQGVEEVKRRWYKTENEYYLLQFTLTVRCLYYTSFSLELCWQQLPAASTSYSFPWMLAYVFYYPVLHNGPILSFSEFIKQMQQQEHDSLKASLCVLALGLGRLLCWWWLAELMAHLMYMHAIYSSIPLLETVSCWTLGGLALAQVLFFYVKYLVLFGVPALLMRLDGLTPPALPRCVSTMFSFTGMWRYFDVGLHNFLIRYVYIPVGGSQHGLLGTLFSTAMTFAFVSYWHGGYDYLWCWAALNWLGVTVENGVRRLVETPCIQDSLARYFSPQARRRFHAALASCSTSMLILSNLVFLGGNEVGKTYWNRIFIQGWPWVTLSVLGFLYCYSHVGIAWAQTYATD
# Experiment description: Acyl-cLIP assay, inhibition of purified HHAT
# Format: biochemical
Rule: fulfilled for inhibition at 50 µM not less than 40%, not fulfilled for anything less.

// inclusive: inhibition at 50 µM at least 40%? input: Cc1cccc(C2NCCc3sccc32)c1 (stereo not shown)
not fulfilled

// inclusive: inhibition at 50 µM at least 40%? input: CC(C)CNCC(=O)N1CCc2ccccc2C1c1ccccc1 (stereo in doubt) [Compound 42]
not fulfilled

// inclusive: inhibition at 50 µM at least 40%? input: Cc1cccc(C2c3ccsc3CCN2C(=O)CNCC(C)C)n1 (stereo not shown)
fulfilled

// inclusive: inhibition at 50 µM at least 40%? input: COCCNC(=O)N1CCc2ccccc2C1c1ccccc1 (stereo not shown)
not fulfilled

// inclusive: inhibition at 50 µM at least 40%? input: C=CCNCC(=O)N1CCc2sccc2C1c1ccccc1 (stereo not shown)
fulfilled

// inclusive: inhibition at 50 µM at least 40%? input: C=CC(=O)N1CCCCC1c1ccccc1 (stereo not shown)
not fulfilled

// inclusive: inhibition at 50 µM at least 40%? input: CC(=S)N1CCc2sccc2C1c1ccccc1 (stereo not shown)
not fulfilled

// inclusive: inhibition at 50 µM at least 40%? input: CCC(C)CNCC(=O)N1CCCCC1c1ccccn1 (stereo not shown)
not fulfilled

// inclusive: inhibition at 50 µM at least 40%? input: CCC(C)CNCC(=O)N1CCc2sccc2C1c1cccc(C)n1 (stereo not shown)
fulfilled

// inclusive: inhibition at 50 µM at least 40%? input: CC(=O)N1CCc2sccc2C1C1CCCCC1 (stereo not shown)
not fulfilled

----------
Record form. Attribute: recovery at 16 h, 10 µM. Fill in for each entry.
# Experiment description: PAMPA parallel artificial membrane permeability assay
# Test context: PAMPA, pH 6.5
I only need the number, in %, no unit after it.

What does the data say about its recovery at 16 h, 10 µM? Entry: CC(=O)N1CCc2sccc2C1c1ccccc1 (stereo not shown) [Compound 5]
98

What does the data say about its recovery at 16 h, 10 µM? Entry: O=c1ccc2ccccc2o1 [Coumarin, reference compound]
99

What does the data say about its recovery at 16 h, 10 µM? Entry: CCC(C)CNCC(=O)N1CCc2ccccc2C1c1ccccc1 (stereo not shown) [Compound 38]
45

What does the data say about its recovery at 16 h, 10 µM? Entry: CC(=O)N1CCc2ccccc2C1c1ccccc1 (stereo not shown) [Compound 37]
92

----------
# Experiment description: MTS assay, cytotoxicity (72 h)
# Format: cell-based
# Test context: human, HEK293a SHH+ cells, 72 h; read-out: MTS Assay (HEK293a SHH+) CC50 (CI95)
Record form. Attribute: CC50 at 72 h. Fill in for each entry.
I only need the number, in µM, no unit after it.

What does the data say about its CC50 at 72 h? Entry: CCC(C)CNCC(=O)N1CCc2sccc2C1c1ccccc1OC (centres unmarked) [Compound 32]
7.6

What does the data say about its CC50 at 72 h? Entry: CCC(C)CNCC(=O)N1CCc2sccc2C1c1cccc(C)c1 (centres unmarked) [Compound 17]
40.7

What does the data say about its CC50 at 72 h? Entry: CCC(C)CNCC(=O)N1CCc2ccc(Cl)cc2C1c1ccccc1 (centres unmarked) [Compound 45]
15.4

----------
Record form. Attribute: CC50 at 72 h. Fill in for each entry.
# Experiment description: MTS assay, cytotoxicity (72 h)
# Format: cell-based
# Test context: human, HEK293a SHH+ cells, 72 h; read-out: MTS Assay (HEK293a SHH+) CC50 (CI95)

What does the data say about its CC50 at 72 h? Entry: CCC(C)CNCC(=O)N1CCc2sccc2C1COc1cccc(C)c1 (centres unmarked)
8.4 µM

What does the data say about its CC50 at 72 h? Entry: "CC(=O)N1CCc2sccc2[C@H]1c1cccc(C)n1"
> 100 µM

What does the data say about its CC50 at 72 h? Entry: CCC(C)CNCC(=O)N1CCc2sccc2C1c1cccc(C)n1 (centres unmarked)
> 50 µM

What does the data say about its CC50 at 72 h? Entry: "Cc1cccc([C@H]2c3ccsc3CCN2C(=O)CNCC(C)C)n1"
> 50 µM

What does the data say about its CC50 at 72 h? Entry: CC(=O)N1CCc2sccc2C1c1ccccc1O (centres unmarked)
> 100 µM

What does the data say about its CC50 at 72 h? Entry: CC(=O)N1CCCCC1c1ccccc1 (centres unmarked)
> 50 µM

What does the data say about its CC50 at 72 h? Entry: CC(=O)N1CCc2ccccc2C1c1ccccc1 (centres unmarked)
47.9 µM

What does the data say about its CC50 at 72 h? Entry: C=CC(=O)N1CCn2cccc2C1c1ccccc1 (centres unmarked)
> 100 µM

What does the data say about its CC50 at 72 h? Entry: Cc1cccc(C2c3ccsc3CCN2C(=O)CNCCC(C)C)n1 (centres unmarked)
15.3 µM

What does the data say about its CC50 at 72 h? Entry: "CC(=O)N1CCc2sccc2[C@@H]1c1cccc(C)n1"
> 50 µM

What does the data say about its CC50 at 72 h? Entry: Cc1cccc(C2c3ccsc3CCN2C(=O)CNCC(C)C)n1 (centres unmarked)
> 50 µM

What does the data say about its CC50 at 72 h? Entry: CC(C)CCNC(=O)N1CCc2ccccc2C1c1ccccc1 (centres unmarked)
1.8 µM

What does the data say about its CC50 at 72 h? Entry: CCC(C)CNCC(=O)N1CCc2cc(OC)c(OC)cc2C1c1ccccc1 (centres unmarked)
> 100 µM

What does the data say about its CC50 at 72 h? Entry: CC(C)CNCC(=O)N1CCc2ccccc2C1c1ccccc1 (centres unmarked) [Compound 39]
> 50 µM

What does the data say about its CC50 at 72 h? Entry: C=CCNCC(=O)N1CCc2sccc2C1c1ccccc1 (centres unmarked)
> 50 µM

What does the data say about its CC50 at 72 h? Entry: "Cc1cccc([C@@H]2c3ccsc3CCN2C(=O)CNCC(C)C)n1"
> 100 µM

What does the data say about its CC50 at 72 h? Entry: CCC(C)CNCC(=O)N1CCc2sccc2C1c1ccccn1 (centres unmarked)
20.3 µM

What does the data say about its CC50 at 72 h? Entry: CC(C)CNCC(=O)N1CCc2ccccc2C1c1ccccc1 (stereo in doubt) [Compound 42]
> 100 µM

What does the data say about its CC50 at 72 h? Entry: CC(=O)N1CCc2sccc2C1c1cccc(C)n1 (centres unmarked)
> 100 µM

What does the data say about its CC50 at 72 h? Entry: C=CC(=O)N1CCCCC1c1ccccn1 (centres unmarked)
> 100 µM

----------
Quantity name: IC50 (µM)
I only need the number, in µM, no unit after it.

Record lookup: for UniProt Q5VTY9, what IC50 belongs to CCC(C)CNCC(=O)N1CCc2sccc2C1c1ccccn1 (stereo not shown) ?
7.98

Record lookup: for UniProt Q5VTY9, what IC50 belongs to CC(C)CNCC(=O)N1CCc2ccccc2C1c1ccccc1 (stereo in doubt) [Compound 43] ?
2.77

Record lookup: for UniProt Q5VTY9, what IC50 belongs to CCC(C)CNCC(=O)N1CCc2sccc2C1c1cccc(C)n1 (stereo not shown) ?
2.58

Record lookup: for UniProt Q5VTY9, what IC50 belongs to CC(=O)N1CCc2sccc2C1c1cccc(C)n1 (stereo not shown) ?
13.4

----------
Record form. Attribute: viability at 72 h, 12.5 µM. Fill in for each entry.
# Experiment description: MTS assay, cytotoxicity (72 h)
# Format: cell-based
# Test context: human, HEK293a SHH+ cells; 12.5 μM, 72 h
I only need the number, in %, no unit after it.

What does the data say about its viability at 72 h, 12.5 µM? Entry: CC(=O)N1CCc2sccc2C1C1CCCCC1 (stereo not shown)
54

What does the data say about its viability at 72 h, 12.5 µM? Entry: Cc1cccc(C2c3ccsc3CCN2C(=O)CNCCC(C)C)n1 (stereo not shown)
74

What does the data say about its viability at 72 h, 12.5 µM? Entry: "CC(=O)N1CCc2sccc2[C@@H]1c1cccc(C)n1"
92

What does the data say about its viability at 72 h, 12.5 µM? Entry: CCC(C)CNCC(=O)N1CCc2sccc2C1c1ccccn1 (stereo not shown)
87

What does the data say about its viability at 72 h, 12.5 µM? Entry: CCC(C)CNCC(=O)N1CCc2cc(OC)c(OC)cc2C1c1ccccc1 (stereo not shown)
96

What does the data say about its viability at 72 h, 12.5 µM? Entry: CCC(C)CNCC(=O)N1CCc2sccc2C1C1CCCCC1 (stereo not shown)
47

What does the data say about its viability at 72 h, 12.5 µM? Entry: CCC(C)CNCC(=O)N1CCc2sccc2C1c1cccc(C)c1 (stereo not shown)
42

What does the data say about its viability at 72 h, 12.5 µM? Entry: C=CCN1CCc2sccc2C1c1cccc(C)c1 (stereo not shown)
81

What does the data say about its viability at 72 h, 12.5 µM? Entry: CCC(C)CNCC(=O)N1CCc2sccc2C1c1ccccc1OC (stereo not shown)
55

What does the data say about its viability at 72 h, 12.5 µM? Entry: c1ccc(C2NCCc3sccc32)cc1 (stereo not shown)
90
